Cited source: patent US10112890B2

- Test system: three-dimensionally cultured human skin model ("EPI-606X")
- assay.procedure: Skin permeability test
- Format: in vitro ADME
- assay.conditions: permeability into the skin model; 0.2% by mass sample solution in PBS (-), pH 7.4, 700 μL; 24 hours, 37° C.; skin model extract plus receiver liquid, HPLC; (A/1400)×100
quantity.measured: Permeability (%)

molecule: CCCCCCCCCCCCCCCC(=O)OCC(C)(C)C(O)C(=O)NCCC(=O)O (stereo not shown)
unit.spec: %
Permeability (%): 41

I = CCCCCCCCCC(=O)OCC(C)(C)C(O)C(=O)NCCC(=O)O (stereo not shown) [Compound (9)-101, reference compound]
II = CC(C)(CO)[C@@H](O)C(=O)NCCC(=O)[O-].[Na+] [Sodium pantothenate, sodium pantothenate, reference compound]
III = CCCCCCCCC(CCCCCC)C(=O)OCC(C)(C)C(O)C(=O)NCCC(=O)O (stereo not shown)
Data request: In this exercise, place the 3 molecules in ascending sequence of their recorded Permeability (%). Ranked list of labels, please, in the requested order.
Data returned: II, I, III
